System: K-562
Assay: SRB colorimetric cell growth inhibition assay, K-562
Type: cell-based
Conditions: Homo sapiens, K562, K-562; total growth inhibition (cytostatic effect); read-out: TGI K-562
Param threshold (3 µM) applies to IC (TGI); output y when value >= threshold, n when value < threshold.

[[record]]
molecule = "COc1cc2c(cc1OC)-c1c(-c3ccc(OC(=O)CCc4ccccc4)c(OC)c3)c3c4cc(OC)c(OC(=O)CCc5ccccc5)cc4oc(=O)c3n1CC2 [Compound 93]"
classification = "n"

[[record]]
molecule = "COc1cc(-c2c3n(c4c(=O)oc5cc(OC(=O)[C@@H](N)Cc6ccccc6)c(OC)cc5c24)CCc2cc(OC(=O)[C@@H](N)Cc4ccccc4)c(OC)cc2-3)ccc1OC(=O)[C@@H](N)Cc1ccccc1 [Compound 115]"
classification = "n"

[[record]]
molecule = "COc1cc(-c2c3n(c4c(=O)oc5cc(O)c(OC)cc5c24)CCc2cc(O)c(OC)cc2-3)ccc1O [Compound 109]"
classification = "y"

[[record]]
molecule = "COc1cc(-c2c3c4cc(OC)c(OC(=O)CCCCCN)cc4oc(=O)c3n3ccc4c(OC(=O)CCCCCN)c(OC)c(OC)cc4c23)ccc1OC(=O)CCCCCN [Compound 193]"
classification = "n"

[[record]]
molecule = "COc1cc(-c2c3c4cc(OC)c(OC(=O)[C@@H](N)CC(C)C)cc4oc(=O)c3n3ccc4cc(OC(=O)[C@@H](N)CC(C)C)c(OC)cc4c23)ccc1OC(=O)[C@@H](N)CC(C)C [Compound 181]"
classification = "n"


Data origin, for the record: patent US7396837B2
